- target_of_assay: SfurOBP2 (Sogatella furcifera)
- measurement_description: biochemical
- Type: binding
- details: ligand concentration 20 (unit not given), replicate column 1 of 3
# key: entry, value: Fluorescence competitive binding assay, OBP2 (raw fluorescence reading)
Form: value (number only, do not type unit).

Answered examples (4):
* C=C/C(C)=C/C/C=C(\C)CCC=C(C)C [α-farnesene] | 16894
* CC(=O)/C=C/C1=C(C)CCCC1(C)C [β-Ionone] | 11557
* Cc1ccc(C(C)C)cc1 [4-isopropyltoluene] | 13105
* COC(=O)c1ccccc1 [benzoic acid methylester] | 14205

In plain terms, c1ccc2ccccc2c1 [naphthalene] has a documented Fluorescence competitive binding assay, OBP2 (raw fluorescence reading) of 17296

---

- target_of_assay: SfurOBP2 (Sogatella furcifera)
- measurement_description: biochemical
- Format: binding
- details: ligand concentration 10 (unit not given), replicate column 1 of 3
- Protocol: Thirty-six rice odorants ([He et al., 2014]; [Wang et al., 2017]) and 1-N-phenyl-naphthylamine (1-NPN) were purchased from Sigma-Aldrich (St Louis, MO, USA). […] Fluorescence competitive binding assays were performed on Tecan Spark 10M (Tecan Group Ltd., Männedorf, Switzerland) with the F96 Black ELIAS Plate (Sangon) ([Khuhro et al., 2017]; [Liu et al., 2017]). The solutions were excited at 337 nm and emission spectra were recorded between 390 and 490 nm. […]
Doc: threshold 20000 (exclusive). Items with Fluorescence competitive binding assay, OBP2 (raw fluorescence reading) beneath it return 1.0; others return 0.0.

Illustrative cases are given below, each with its answer.
- CCCCCCCCCCCCCCCCCC: 0.0
- C=C/C(C)=C/C/C=C(\C)CCC=C(C)C: 1.0
- CCCCCCC=CCO: 0.0

Consider the compound CCCCCCCCCCCCCCCC . Is its Fluorescence competitive binding assay, OBP2 (raw fluorescence reading) strictly less than 20000?
1.0

Consider the compound CC/C=C\CCO [(Z)-3-hexenol] . Is its Fluorescence competitive binding assay, OBP2 (raw fluorescence reading) strictly less than 20000?
1.0

Consider the compound COC(=O)c1ccccc1 . Is its Fluorescence competitive binding assay, OBP2 (raw fluorescence reading) strictly less than 20000?
1.0

Consider the compound CCC/C=C/CO [(E)-2-hexenol] . Is its Fluorescence competitive binding assay, OBP2 (raw fluorescence reading) strictly less than 20000?
1.0

Consider the compound CCCCCC=O . Is its Fluorescence competitive binding assay, OBP2 (raw fluorescence reading) strictly less than 20000?
1.0

Consider the compound Cc1ccc(C(C)C)cc1 . Is its Fluorescence competitive binding assay, OBP2 (raw fluorescence reading) strictly less than 20000?
1.0

Consider the compound CC(=O)/C=C/C1=C(C)CCCC1(C)C . Is its Fluorescence competitive binding assay, OBP2 (raw fluorescence reading) strictly less than 20000?
1.0

Consider the compound CCCCCCCC=O . Is its Fluorescence competitive binding assay, OBP2 (raw fluorescence reading) strictly less than 20000?
1.0

---

# key: entry, value: Fluorescence competitive binding assay, OBP2 (raw fluorescence reading)
- target_of_assay: UniProtKB V5T759
- measurement_description: biochemical
- Type: binding
- details: ligand concentration 14 (unit not given), replicate column 1 of 3

Answered examples (5):
* CCCCCCCCCCCCCC | 19553
* C[C@@H]1CC[C@H]2C(C)(C)[C@H]3C[C@@]12CC[C@@]3(C)O | 25754
* C=C/C(C)=C/C/C=C(\C)CCC=C(C)C | 19071
* CCCCCCCCCCCCCCCC(=O)OC [MH(methyl hexadecanoate)] | 59847
* CCCCCCC=CCO | 16875

Switching to the query record.
In plain terms, C=CC(C)(O)CCC=C(C)C (stereo not drawn) has a documented Fluorescence competitive binding assay, OBP2 (raw fluorescence reading) of 15375

---

- target_of_assay: SfurOBP11 (Sogatella furcifera, UniProt V5T6E3)
- Sequence (V5T6E3 entry or part of it): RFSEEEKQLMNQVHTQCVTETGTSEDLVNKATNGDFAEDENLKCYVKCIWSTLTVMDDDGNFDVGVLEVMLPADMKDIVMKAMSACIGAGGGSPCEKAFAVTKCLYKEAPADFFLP
- measurement_description: biochemical
- Type: binding
- details: ligand concentration 4, replicate 1
# key: entry, value: Fluorescence intensity, fluorescence competitive binding assay, OBP11
Form: value (number only, do not type unit).

Answered examples (10):
• COC(=O)c1ccccc1 [benzoic acid methylester] = 28195
• C=CC(C)(O)CCC=C(C)CCC=C(C)C (mixture of isomers) [nerolidol] = 28342
• CCC/C=C/CO [(E)-2-hexenol] = 31605
• CCCCCCCCCCCCCCCCCCC [n-nonadecane] = 38725
• C=C(C)C1CC=C(C)CC1 (single isomer, unassigned; (+)) [(+)-limonene] = 19119
• CCCCCC(C)=O [2-heptanone] = 24848
• CCCCCCC=CCO [2-nonen-1-ol] = 35859
• Cc1cc(C(C)(C)C)c(O)c(C(C)(C)C)c1 [BHT(2,6-di-tert-butyl-4-methylphenol)] = 20143
• CC(=O)c1ccccc1 [acetophenone] = 25394
• CCCCCC=O [caproaldehyde] = 27823

Switching to the query record.
In plain terms, CC(C)COC(=O)CCCCC(=O)OCC(C)C [DA(diisobutyl adipate)] has a documented Fluorescence intensity, fluorescence competitive binding assay, OBP11 of 25234

---

- target_of_assay: SfurOBP2 (Sogatella furcifera, UniProt V5T759)
- Sequence (V5T759 entry or part of it): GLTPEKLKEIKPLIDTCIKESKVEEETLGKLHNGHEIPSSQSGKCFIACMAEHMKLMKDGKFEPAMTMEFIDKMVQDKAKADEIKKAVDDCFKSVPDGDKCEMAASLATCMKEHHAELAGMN
- measurement_description: biochemical
- Assay type: binding
- details: ligand concentration 2 (unit not given), replicate column 1 of 3
Doc: threshold 20000 (exclusive). Items with Fluorescence competitive binding assay, OBP2 (raw fluorescence reading) beneath it return yes; others return no.

Illustrative cases are given below, each with its answer.
- C=CC(C)(O)CCC=C(C)C (stereo not shown) [linalool]: no
- O=C(c1ccccc1)c1ccccc1 [benzophenone]: yes
- CCCCCCCC=O [octanal]: yes
- Cc1ccc(C(C)C)cc1 [4-isopropyltoluene]: yes

Consider the compound CCCCCCCCCCCCCCCC(=O)OC [MH(methyl hexadecanoate)] . Is its Fluorescence competitive binding assay, OBP2 (raw fluorescence reading) strictly less than 20000?
no

Consider the compound CCC/C=C/CO [(E)-2-hexenol] . Is its Fluorescence competitive binding assay, OBP2 (raw fluorescence reading) strictly less than 20000?
yes

Consider the compound Cc1cc(C(C)(C)C)c(O)c(C(C)(C)C)c1 [BHT(2,6-di-tert-butyl-4-methylphenol)] . Is its Fluorescence competitive binding assay, OBP2 (raw fluorescence reading) strictly less than 20000?
yes

---

- target_of_assay: SfurOBP2 (Sogatella furcifera, UniProt V5T759)
- measurement_description: biochemical
- Format: binding
- details: ligand concentration 12 (unit not given), replicate column 2 of 3
outcome_measure: Fluorescence competitive binding assay, OBP2 (raw fluorescence reading)
Form: value (number only, do not type unit).

Answered examples (4):
- C=CC(C)(O)CCC=C(C)C (stereo not shown) [linalool]: 16713
- CCCCCCCCCCCCCCCCCC [n-octadecane]: 21111
- CCCCCC(C)=O [2-heptanone]: 14468
- CCCCCCCCC=O [nonanal]: 17338

In plain terms, C/C(=C\CO)CCC[C@H](C)CCC[C@H](C)CCCC(C)C [plant alcohol] has a documented Fluorescence competitive binding assay, OBP2 (raw fluorescence reading) of 19917

In plain terms, CC(C)COC(=O)CCCCC(=O)OCC(C)C [DA(diisobutyl adipate)] has a documented Fluorescence competitive binding assay, OBP2 (raw fluorescence reading) of 15645

In plain terms, C=C1CC/C=C(\C)CC[C@@H]2[C@@H]1CC2(C)C [β-caryophyllene] has a documented Fluorescence competitive binding assay, OBP2 (raw fluorescence reading) of 15342

In plain terms, COC(=O)c1ccccc1 [benzoic acid methylester] has a documented Fluorescence competitive binding assay, OBP2 (raw fluorescence reading) of 16003

In plain terms, CCCCCC=O [caproaldehyde] has a documented Fluorescence competitive binding assay, OBP2 (raw fluorescence reading) of 16015

In plain terms, CCCCCCCCCCOCCCCCCCCCC [didecyl ether] has a documented Fluorescence competitive binding assay, OBP2 (raw fluorescence reading) of 46457

---

- target_of_assay: SfurOBP2 (Sogatella furcifera, UniProt V5T759)
- measurement_description: biochemical
- Assay type: binding
- details: ligand concentration 2 (unit not given), replicate column 1 of 3
Rule: Fluorescence competitive binding assay, OBP2 (raw fluorescence reading) under 20000 gives no (0), otherwise yes (1).

Illustrative cases are given below, each with its answer.
- CC(C)COC(=O)CCCCC(=O)OCC(C)C [DA(diisobutyl adipate)]: no (0)
- CCCCCCCCCCCCCC [n-tetradecane]: no (0)
- CCCCCCC=CCO [2-nonen-1-ol]: yes (1)

Textbook exercise: given the entry c1ccc2ccccc2c1 [naphthalene] , state whether its Fluorescence competitive binding assay, OBP2 (raw fluorescence reading) is greater than or equal to 20000.
yes (1)

Textbook exercise: given the entry CCCCCCCCCCCCCCCC [n-hexadecane] , state whether its Fluorescence competitive binding assay, OBP2 (raw fluorescence reading) is greater than or equal to 20000.
no (0)

---

- target_of_assay: SfurOBP11 (Sogatella furcifera, UniProt V5T6E3)
- measurement_description: biochemical
- Type: binding
- details: ligand concentration 6, replicate 1
# key: entry, value: Fluorescence intensity, fluorescence competitive binding assay, OBP11
Form: value (number only, do not type unit).

Answered examples (5):
- C=C/C(C)=C/C/C=C(\C)CCC=C(C)C: 31916
- CCCCCCCCCCCCCCCCCCC: 38941
- OC1CCCCC1: 24316
- Cc1ccc(C(C)C)cc1: 30703
- CCCCCCCCCCCCCC: 26462

Fluorescence intensity, fluorescence competitive binding assay, OBP11 for SfurOBP11 (Sogatella furcifera, UniProt V5T6E3) with input CC/C=C\CCO [(Z)-3-hexenol] equals 21447

Fluorescence intensity, fluorescence competitive binding assay, OBP11 for SfurOBP11 (Sogatella furcifera, UniProt V5T6E3) with input CCCCCCCCCCOCCCCCCCCCC equals 52018

Fluorescence intensity, fluorescence competitive binding assay, OBP11 for SfurOBP11 (Sogatella furcifera, UniProt V5T6E3) with input CCCCCCCC=O equals 25301

Fluorescence intensity, fluorescence competitive binding assay, OBP11 for SfurOBP11 (Sogatella furcifera, UniProt V5T6E3) with input CCCCCCCCCCC equals 33021

Fluorescence intensity, fluorescence competitive binding assay, OBP11 for SfurOBP11 (Sogatella furcifera, UniProt V5T6E3) with input C[C@@H]1CC[C@H]2C(C)(C)[C@H]3C[C@@]12CC[C@@]3(C)O equals 34551

Fluorescence intensity, fluorescence competitive binding assay, OBP11 for SfurOBP11 (Sogatella furcifera, UniProt V5T6E3) with input CCCCCCCCC=O equals 33680

Fluorescence intensity, fluorescence competitive binding assay, OBP11 for SfurOBP11 (Sogatella furcifera, UniProt V5T6E3) with input CCCCCCCC equals 29774

Fluorescence intensity, fluorescence competitive binding assay, OBP11 for SfurOBP11 (Sogatella furcifera, UniProt V5T6E3) with input CCC/C=C/CO [(E)-2-hexenol] equals 29600

Fluorescence intensity, fluorescence competitive binding assay, OBP11 for SfurOBP11 (Sogatella furcifera, UniProt V5T6E3) with input c1ccc2ccccc2c1 equals 35498
